The values you see were collected from PubChem BioAssay (NCI).

# Assay protocol: NCI Yeast Anticancer Drug Screen. Data for the rad14 strain (AID 159);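 further: 0% = growth of vehicle-treated control cultures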
# Test settings: S. cerevisiae rad14 strain growth inhibition; at 1.2 µM; hits give high values
# Experimental: Growth inhibition of yeast strains with defined genetic alterations is measured as a screen for potential anti-cancer activity. Selected strains with alterations in DNA damage repair or cell cycle control were exposed to compounds and growth inhibition was measured relative to vehicle treated controls. The strain used in this assay is rad14
Compounds without any hit were thinned out: in the full panel of roughly 79,000, 15% have a hit. Calls of active or inactive are those of the source. No stated cut-off is given here; in the data, active means growth inhibition above about 70%; inactive means the rest.
Property measured: growth inhibition

The following molecules have reported results that may help.
>>> meas_value("CC[C@@]1(O)C(=O)OCc2c1cc1n(c2=O)Cc2cc3c(CN(C)C)c(O)ccc3nc2-1")
"-1% (inactive)"
>>> meas_value("COC1=CC(=O)C2C(C1=O)C(c1ccc(Cl)cc1)[C@@H]2C (stereo not given in full)")
"-3% (inactive)"

Could you tell me which growth inhibition is on file for "Nc1nc(-c2cccnc2)cc(-c2cc(-c3cccnc3)nc(N)n2)n1" ? -1% (inactive)

Try this molecule next: "CCCCCCc1cc(C(=O)OC/C(C)=N/NC(N)=O)c2ccccc2n1" 0% (inactive)

// same read-out, input: COc1ccccc1C(=O)OCC1CCCN2CCCCC12 (stereo not given) 10% (inactive)

Again, but for "CN=C(N)N/N=C/c1ccc2c(c1)Cc1ccccc1-2" -1% (inactive)

What about "Cc1ccc2[nH]c3c(C)c4cc[n+](C)cc4c(C)c3c2c1" ? 16% (inactive)

Same again, this time with "COc1ccc(Br)c(C(=O)Sc2nnnn2-c2cccc(Cl)c2)c1" -8% (inactive)

Input "C/C(=N\NC(=S)SCc1ccccc1)c1ccccn1" -10% (inactive)

Now try "O=C(O)c1ccccc1NC(=S)c1ccccc1" . 2% (inactive)

What about "CCC(=O)c1cccc2ccccc12" ? -1% (inactive)

Input "COc1ccc(NC(=S)N/N=C(\c2ccccc2)c2ccccn2)cc1" -4% (inactive)

Similarly, "Cc1ccc(NC(=O)/C(Cl)=C(\Cl)C(=O)O)cc1C" ? 3% (inactive)

Try this molecule too: CCCCCCCCCCC1CCC(=O)O1 (stereo not given) 1% (inactive)

Consider next the molecule "CN1Cc2ccccc2/C=C\c2ccccc21" in the same way. -3% (inactive)

// next record "CCN(CC)C(C)(C)C(=O)/C=C/c1ccccc1" -3% (inactive)

Repeat with Nc1ccccc1CC(O)C(=O)O (stereo not given) -3% (inactive)

And "C[C@@H]1C[C@H]2[C@@H]3CCC4=CC(=O)C=C[C@]4(C)[C@@]3(Cl)[C@@H](Cl)C[C@]2(C)[C@@]1(O)C(=O)COP(=O)(O)O" ? -1% (inactive)

What do you get for "CCOC(=O)c1cnc2cc(C(F)(F)F)ccc2c1N=[N+]=[N-]" ? 7% (inactive)

Also "COc1cc(/C=C2\CCc3ccccc3C2=O)cc(OC)c1OC" , if possible. -10% (inactive)

Similarly, C=CCC1=C(C)C(OC(=O)/C=C/c2ccccc2)CC1=O (stereo not given) ? 1% (inactive)

Try the molecule "CC(C)C1=CC2=C[C@H](O)[C@H]3C(C)(C)CCC[C@]3(C)C2=C(O)C1=O" 6% (inactive)

Moving on to the next molecule: OCC1OC(OCC(O)C(O)C(O)C(/C=N/Nc2ccccc2)=N/Nc2ccccc2)C(O)C(O)C1O (stereo not given) -1% (inactive)

Likewise for "OC(c1ccc(F)cc1)(c1ccc(F)cc1)C1CC1" ? -18% (inactive)

// next record C/C(=N\O)C1CC2C=C(C#N)C1N(Cc1ccccc1)C2 (stereo not given) -3% (inactive)
